I'd be grateful if you could share measured kon for these entries.
# TGT: T1, cynomolgus IL-1α (cynomolgus, UniProt P79340 113-271, limits assumed)
# T1 construct: also called cyno IL-1α
# T1 sequence (looked up): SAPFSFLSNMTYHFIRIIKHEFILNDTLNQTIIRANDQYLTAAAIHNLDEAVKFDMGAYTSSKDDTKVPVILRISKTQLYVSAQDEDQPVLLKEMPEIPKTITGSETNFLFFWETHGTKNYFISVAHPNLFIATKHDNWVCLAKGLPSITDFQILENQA
# ASSAY_COMMENT: SPR (BIACORE), antibody captured, IL-1α in solution
Give bare numbers, in M⁻¹ s⁻¹.

Consider the worked cases shown below.
// query Answer with the recorded kon for the binder listed here: h3D12-362-10/372-15 (antibody, V domains shown) VH: EVQLVQSGAEVKKPGVSVKVSCKASGYTFTTYGMHWVRQAPGQGLEWMGWINTYTGESTYADDFQGRVTFTLDTSTSTAYMELSSLRSEDTAVYFCARGIYYYGSSYAMNYWGQGTTVTVSS VL: DIQMTQSPSSLSASVGDRVTITCRASQDISNMLNWYQQKPGKTPKLLIYYTSRLYPGVPSRFSGSGSGTDYTFTISSLQPEDIATYFCQQGKTLPYAFGQGTKLEIK
// result 389000

// query Answer with the recorded kon for the binder listed here: h3D12.r10 (antibody, V domains shown) VH: EIQLVQSGAEVKKPGASVKVSCKASGYTFAHYGMNWVRQAPGQGLEWMGWINTYTGQSTYADDFKGRFTFTLDTSTSTAYMELSSLRSEDTAVYYCARGIYYFGSNYAMDYWGQGTTVTVSS VL: DIQMTQSPSSLSASVGDRVTITCRASQDISNMLNWYQQKPGKTPKLLIYYTSRLRSGVPSRFSGSGSGTDYTFTISSLQPEDIATYFCQQGKKPPYTFGQGTKLEIK
// result 1.37e+06

// query Answer with the recorded kon for the binder listed here: h3D12.r37 (antibody, V domains shown) VH: EIQLVQSGAEVKKPGASVKVSCKASGYTFKYYGMNWVRQAPGQGLERMGWINTYTGESRYADDFKGRVTFTLDTSTSTAYMELSSLRSEDTAVYYCARDIYYFGSDYAMDYWGQGTTVTVSS VL: DIQMTQSPSSLSASVGDRVTITCRASQDISNRLNWYQQKPGKAPKLLIYYASRLKPGVPSRFSGSGSGTDYTFTISSLQPEDIATYFCQQGNTPPYTFGQGTKLEIK
// result 970000

Continue with the next binder.
// query Answer with the recorded kon for the binder listed here: h3D12.r16 (antibody, V domains shown) VH: EVQLVQSGAEVKKPGASVKVSCKASGYTFKYYGMNWVRQAPGQGLERMGWINTYTGQSTYADDFKGRVTFTLDTSTSTAYMELSSLRSEDTAVYYCARDIYYYGSDFAMDYWGQGTTVTVSS VL: DIQMTQSPSSLSASVGDRVTITCRASQDISNMLNWYQQKPGKAPKLLIYYTSRLKPGVPSRFSGSGSGTDYTFTISSLQPEDIATYFCQQGKTAPYTFGQGTKLEIK
// result 901000
